Measured On: Renin (Homo sapiens)
Sequence (P00797 whole entry): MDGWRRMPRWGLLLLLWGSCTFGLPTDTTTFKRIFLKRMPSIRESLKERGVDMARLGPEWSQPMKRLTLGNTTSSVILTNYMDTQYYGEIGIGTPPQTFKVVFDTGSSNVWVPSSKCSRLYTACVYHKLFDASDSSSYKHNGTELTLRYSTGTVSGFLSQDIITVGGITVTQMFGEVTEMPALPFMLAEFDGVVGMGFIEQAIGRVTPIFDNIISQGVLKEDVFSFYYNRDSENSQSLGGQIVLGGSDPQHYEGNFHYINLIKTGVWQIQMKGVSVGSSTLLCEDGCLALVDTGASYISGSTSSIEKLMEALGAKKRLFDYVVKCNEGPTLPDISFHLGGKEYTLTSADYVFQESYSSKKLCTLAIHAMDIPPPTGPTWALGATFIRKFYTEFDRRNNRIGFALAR
Test: Inhibition of human recombinant renin
Property: pIC50
Give bare numbers, as −log10 of the molar value.

Example cases with answers are listed next.
> print(dat)
                         chemical.structure           measured.on  numeric.value
1  CCOCCCO[C@@H](c1cccc(Cl)c1)[C@@H]1CCCN(C(=O)N[C@H](CN)CC2CCCCC2)C1  Renin (Homo sapiens)           8.26
2  CNC[C@H](CC1CCCCC1)NC(=O)N1CCC[C@@H]([C@@](O)(CCCCOC)c2cc(C)ccc2F)C1  Renin (Homo sapiens)           8.46
3  CNC[C@H](CC1CCCCC1)NC(=O)N1CCC[C@@H]([C@@](O)(CCCCOC)c2ccccc2Cl)C1  Renin (Homo sapiens)           8.15
4  CNC[C@H](CC1CCCCC1)NC(=O)N1CCC[C@@H]([C@@](O)(CCCCOC)c2cccc(Cl)c2F)C1  Renin (Homo sapiens)          10.00
5  CNC[C@H](CC1CCCCC1)NC(=O)N1CCC[C@@H]([C@@](O)(CCCCOC)c2ccccc2F)C1  Renin (Homo sapiens)           8.40
6  CCOCCCO[C@@H](c1cccc(Cl)c1)[C@@H]1CCCN(C(=O)N[C@H](CNC)CC2CCCCC2)C1  Renin (Homo sapiens)           8.40
7  CNC[C@H](CC1CCCCC1)NC(=O)N1CCC[C@@H]([C@@](O)(CCCCOC)c2ccccc2)C1  Renin (Homo sapiens)           8.15

Next, consider the following molecule.
Quick note, pIC50 for COCCCC[C@@](O)(c1ccccc1)[C@@H]1CCCN(C(=O)N[C@H](CN)CC2CCCCC2)C1 landed at 7.68

The measurements presented in this section are drawn from ChEMBL document CHEMBL1136958.
